FYI, the data here is from PubChem BioAssay (Tox21).

assay: Human pregnane X receptor (PXR) small molecule agonists, qHTS cell viability counter screen (AID 1346977); details: PXR-Luc HepG2 viability, CellTiter-Fluor, 24 h; series mostly up to 92.4 µM; further: nearly all actives have a fitted effect of over 50% in size
Records with an inconclusive call do not appear. The source made the active and inactive calls. The call rests on the fitted dose curve; in most records, active means well fitted cell-killing curve with a large enough effect in the repeat runs; inconclusive means weak or mixed curves, or effect the other way; inactive means flat fitted curve, though single readings scatter.
Hi! Could you answer with just one of these? active, inactive

These recorded examples may help you get a feel for the data.
C1CCCC1    inactive
N=C1N=C(N)c2ccccc21    active
CCCC/C=C/CCCCO    inactive

How was O=C(Nc1cccc(Cl)c1)OCC#CCCl classified in this test?
active

How was Oc1ccc(C2(c3ccc(O)cc3)CC3CC2C2CCCC32)cc1 (stereo unspecified) classified in this test?
active

How was Cc1cc(CCN2CCN(c3nsc4ccccc34)CC2)cc2c1NC(=O)CC2(C)C classified in this test?
active

How was O=C(NO)C1(NS(=O)(=O)c2ccc(Oc3ccc(F)cc3)cc2)CCOCC1 classified in this test?
inactive

How was COc1c(C)c2c(c(O)c1C/C=C(\C)CCC(=O)O)C(=O)OC2 classified in this test?
inactive

How was CC(C)(C)c1ccc(C(=O)O)cc1 classified in this test?
inactive

How was CCc1cc(SCc2sc(-c3ccc(C(F)(F)F)cc3)nc2CN2CCN(c3ccc(OC)cc3)CC2)ccc1OCC(=O)O classified in this test?
active

How was CN(C)c1ccc(C2(c3ccc(N(C)C)cc3)OC(=O)c3cc(N(C)C)ccc32)cc1 classified in this test?
inactive

How was CN(C/C=C/C#CC(C)(C)C)Cc1cccc2ccccc12 classified in this test?
inactive

How was CC(C)(C)C(=O)OCOC(=O)C1N2C(=O)CC2S(=O)(=O)C1(C)C (stereo unspecified) classified in this test?
inactive

How was CCOC(=O)c1nc(C(Cl)(Cl)Cl)n(-c2ccc(Cl)cc2Cl)n1 classified in this test?
active

How was COc1cccc2c1C(=O)c1c(O)c3c(c(O)c1C2=O)C[C@@](O)(C(=O)CO)C[C@@H]3O[C@H]1C[C@H](N)[C@H](O[C@@H]2CCCCO2)[C@H](C)O1 classified in this test?
active

How was O=c1[nH]cnc2nc[nH]c12 classified in this test?
inactive

How was CO[Si](CCCNc1ccccc1)(OC)OC classified in this test?
inactive

How was CCCCCCCC[N+](CCCCCCCC)(CCCCCCCC)CCCCCCCC classified in this test?
active

How was Oc1ccc(Cl)cc1Sc1cc(Cl)ccc1O classified in this test?
active

How was COc1ccc(C(=O)/C(Br)=C\C(=O)O)cc1 classified in this test?
active

How was CNC(=O)c1ccccc1 classified in this test?
inactive

How was Nc1ccc(N)c2ccccc12 classified in this test?
active

How was CCN(C(=O)N(CC)c1ccccc1)c1ccccc1 classified in this test?
inactive
